Data credit: ChEMBL document CHEMBL3826912

- Assay name: AUCtotal in rat at 5 mg/kg administered via oral gavage by LC-MS/MS analysis
- Type: ADME, organism-based
- Parameters: dose 5 mg/kg, time AUCmax, route oral
- Measurement parameters: in vivo
Reported metric: AUC (µM·h)

sample_smiles=C=C(C)[C@@H]1CC[C@]2(NCCN3CCS(=O)(=O)CC3)CC[C@]3(C)[C@H](CC[C@@H]4[C@@]5(C)CC=C(c6ccc(C(=O)O)cc6)C(C)(C)[C@@H]5CC[C@]43C)[C@@H]12 reported_metric=AUC numeric_readout=14.2

###

- Assay name: AUCtotal in mouse at 5 mg/kg administered via oral gavage by LC-MS/MS analysis
- Type: ADME, organism-based
- Design: dose 5 mg/kg, route oral, time AUCmax
- Measurement parameters: in vivo
Reported metric: AUC (µM·h)

sample_smiles=C=C(C)[C@@H]1CC[C@]2(NCCN3CCS(=O)(=O)CC3)CC[C@]3(C)[C@H](CC[C@@H]4[C@@]5(C)CC=C(c6ccc(C(=O)O)cc6)C(C)(C)[C@@H]5CC[C@]43C)[C@@H]12 numeric_readout=28.9
